- Test system: Chinese Hamster Pulmonary Line DC-3F/AD
- measurement.description: Increase in the cytotoxicity of actinomycin D on the Chinese hamster pulmonary line DC-3F/AD
- Assay type: cell-based
- applied.conditions: compound 20 μM, 4 days
readout: Reversion Factor (RF)

Please review the entries below; each comes with its answer.
For O=c1[nH]c2ccccc2n1C1CCN(CCCC(c2ccc(F)cc2)c2ccc(F)cc2)CC1 [PIMOZIDE] , write its Reversion Factor (RF).
TOX

For C=CCNc1nc(NCC=C)nc(N2CCC(NCC(c3ccc(F)cc3)c3ccc(F)cc3)CC2)n1 , write its Reversion Factor (RF).
TOX

For CCCCc1oc2ccccc2c1C(=O)c1cc(I)c(OCCN(CC)CC)c(I)c1 [AMIODARONE, reference compound] , write its Reversion Factor (RF).
TOX

For C=CCNc1nc(NCC=C)nc(N2CCC(NCCC(c3ccccc3)c3ccccc3)CC2)n1 , write its Reversion Factor (RF).
TOX

For COC(=O)[C@@H]1[C@H]2C[C@H]3c4[nH]c5ccccc5c4CCN3C[C@@H]2CC[C@@H]1O , write its Reversion Factor (RF).
< 12

For OCCN(CCO)c1nc(N2CCCCC2)c2nc(N(CCO)CCO)nc(N3CCCCC3)c2n1 , write its Reversion Factor (RF).
< 12

Next:
For COC(=O)[C@H]1[C@H]2C[C@@H]3c4[nH]c5cc(OC)ccc5c4CCN3C[C@H]2C[C@@H](OC(=O)c2cc(OC)c(OC)c(OC)c2)[C@@H]1OC , write its Reversion Factor (RF).
2024

For CN1CCN(CCCN2c3ccccc3Sc3ccc(C(F)(F)F)cc32)CC1 , write its Reversion Factor (RF).
TOX

For COc1ccc([C@@H]2Sc3ccccc3N(CCN(C)C)C(=O)[C@@H]2OC(C)=O)cc1 , write its Reversion Factor (RF).
< 11

###

- Test system: Chinese Hamster Pulmonary Line DC-3F/AD
- measurement.description: Increase in the cytotoxicity of actinomycin D on the Chinese hamster pulmonary line DC-3F/AD
- Format: cell-based
- applied.conditions: compound 20 μM, 4 days
readout: Reversion Factor (RF)

Please review the entries below; each comes with its answer.
For C=C[C@H]1C[N@@]2CC[C@H]1C[C@H]2[C@H](O)c1ccnc2ccc(OC)cc12 , write its Reversion Factor (RF).
< 11

For CC(=O)[C@H]1CC[C@H]2[C@@H]3CCC4=CC(=O)CC[C@]4(C)[C@H]3CC[C@]12C , write its Reversion Factor (RF).
13

For CN(C)CCCN1c2ccccc2Sc2ccc(Cl)cc21 , write its Reversion Factor (RF).
< 13

For c1ccc2c(c1)Nc1ccccc1S2 , write its Reversion Factor (RF).
< 12

For C=CCNc1nc(NCC=C)nc(N2CCC(NCC(c3ccccc3)c3ccccc3)CC2)n1 , write its Reversion Factor (RF).
TOX

For C=CCNc1nc(NCCC)nc(N2CCC(NCCC(c3ccccc3)c3ccccc3)CC2)n1 , write its Reversion Factor (RF).
TOX

For CCN(CC)CCCC(C)Nc1c2ccc(Cl)cc2nc2ccc(OC)cc12 (stereo not drawn) , write its Reversion Factor (RF).
TOX

For C=C[C@H]1C[N@@]2CC[C@H]1C[C@@H]2[C@@H](O)c1ccnc2ccc(OC)cc12 , write its Reversion Factor (RF).
< 12

Next:
For Fc1ccc(C(c2ccc(F)cc2)N2CCN(C/C=C/c3ccccc3)CC2)cc1 , write its Reversion Factor (RF).
TOX

###

- Test system: Chinese Hamster Pulmonary Line DC-3F/AD
- measurement.description: Increase in the cytotoxicity of actinomycin D on the Chinese hamster pulmonary line DC-3F/AD;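 also: DC-3F/AD is an extremely resistant cell line whose resistance factor exceeds 10,000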
- Type: cell-based
- applied.conditions: compound 2.5 μM, 4 days
readout: Reversion Factor (RF)
Reply with just the number.

Please review the entries below; each comes with its answer.
Quote Reversion Factor (RF) with test system Chinese Hamster Pulmonary Line DC-3F/AD for C=CCNc1nc(NCC=C)nc(N2CCC(NCC(c3cc(OC)cc(OC)c3)c3ccccc3C)CC2)n1 (stereo not shown) [Example 10]
259

Quote Reversion Factor (RF) with test system Chinese Hamster Pulmonary Line DC-3F/AD for C=CCNc1nc(NCC=C)nc(N2CCC(NCC(c3ccc(F)cc3)c3ccc(F)cc3)CC2)n1 [Example 1]
171

// below: Reversion Factor (RF) requested for another compound
Quote Reversion Factor (RF) with test system Chinese Hamster Pulmonary Line DC-3F/AD for C=CCNc1cc(N2CCC(NCCC(c3ccccc3)c3ccccc3)CC2)nc(NCC=C)n1 [Example 9]
94

###

Below, each of the compounds is paired with its reported Increase in fluorescence of ADR (VAR-MEAN = MN2 - MN1) value.
- Test system: line P 388/ADR 10
- measurement.description: Flow cytometry, increase in fluorescence of ADR on the line P 388/ADR 10
- Format: cell-based, murine
- applied.conditions: compound 2 μM, ADR 50 μM, 5 h
Reply with just the number.

Please review the entries below; each comes with its answer.
For C=CCNc1nc(NCC=C)nc(NC2CCN(CC(c3ccccc3)c3ccccc3)CC2)n1 [Example 3] , write its Increase in fluorescence of ADR (VAR-MEAN = MN2 - MN1).
29.9

For C=CCNc1nc(NCC=C)nc(N2CCC(NCC(c3ccc(F)cc3)c3ccc(F)cc3)CC2)n1 [Example 1] , write its Increase in fluorescence of ADR (VAR-MEAN = MN2 - MN1).
53.1

For C=CCNc1nc(NCCC)nc(N2CCC(NCC(c3ccccc3)c3ccccc3)CC2)n1 [Example 7] , write its Increase in fluorescence of ADR (VAR-MEAN = MN2 - MN1).
48.75

For C=CCNc1nc(NCC=C)nc(N2CCC(NCCC(c3ccccc3)c3ccccc3)CC2)n1 [Example 6] , write its Increase in fluorescence of ADR (VAR-MEAN = MN2 - MN1).
32.9

For C=C[C@H]1C[N@@]2CC[C@H]1C[C@H]2[C@H](O)c1ccnc2ccc(OC)cc12 [QUININE] , write its Increase in fluorescence of ADR (VAR-MEAN = MN2 - MN1).
4.85

Next:
For O=c1[nH]c2ccccc2n1C1CCN(CCCC(c2ccc(F)cc2)c2ccc(F)cc2)CC1 [PIMOZIDE] , write its Increase in fluorescence of ADR (VAR-MEAN = MN2 - MN1).
25.60

For COc1ccc(CCN(C)CCCC(C#N)(c2ccc(OC)c(OC)c2)C(C)C)cc1OC (stereo not drawn) [reference compound] , write its Increase in fluorescence of ADR (VAR-MEAN = MN2 - MN1).
9.89

For Fc1ccc(C(c2ccc(F)cc2)N2CCN(C/C=C/c3ccccc3)CC2)cc1 [FLUNARIZINE] , write its Increase in fluorescence of ADR (VAR-MEAN = MN2 - MN1).
7.35

For C=C[C@H]1C[N@@]2CC[C@H]1C[C@@H]2[C@@H](O)c1ccnc2ccc(OC)cc12 [QUINIDINE] , write its Increase in fluorescence of ADR (VAR-MEAN = MN2 - MN1).
6.65

For C=CCNc1cc(N2CCC(NCCC(c3ccccc3)c3ccccc3)CC2)nc(NCC=C)n1 [Example 9] , write its Increase in fluorescence of ADR (VAR-MEAN = MN2 - MN1).
39.2

For c1ccc2c(c1)Nc1ccccc1S2 [PHENOTHIAZINE] , write its Increase in fluorescence of ADR (VAR-MEAN = MN2 - MN1).
0.00

For CCCCc1oc2ccccc2c1C(=O)c1cc(I)c(OCCN(CC)CC)c(I)c1 [AMIODARONE, reference compound] , write its Increase in fluorescence of ADR (VAR-MEAN = MN2 - MN1).
33.40

For C=CCNc1nc(NCC=C)nc(N2CCC(NCC(c3ccccc3)c3ccccc3)CC2)n1 [Example 5] , write its Increase in fluorescence of ADR (VAR-MEAN = MN2 - MN1).
45.25

For COC(=O)[C@H]1[C@H]2C[C@@H]3c4[nH]c5cc(OC)ccc5c4CCN3C[C@H]2C[C@@H](OC(=O)c2cc(OC)c(OC)c(OC)c2)[C@@H]1OC [RESERPINE] , write its Increase in fluorescence of ADR (VAR-MEAN = MN2 - MN1).
73.46

For C=CCNc1nc(NCC=C)nc(N2CCC(NCC(c3cc(OC)cc(OC)c3)c3ccccc3C)CC2)n1 (stereo not drawn) [Example 10] , write its Increase in fluorescence of ADR (VAR-MEAN = MN2 - MN1).
52.0

For COC(=O)C1=C(C)NC(C)=C(C(=O)OC)C1c1ccccc1[N+](=O)[O-] [NIFEDIPINE] , write its Increase in fluorescence of ADR (VAR-MEAN = MN2 - MN1).
0.00

For COc1ccc([C@@H]2Sc3ccccc3N(CCN(C)C)C(=O)[C@@H]2OC(C)=O)cc1 [DILTIAZEM] , write its Increase in fluorescence of ADR (VAR-MEAN = MN2 - MN1).
3.10

For CCN(CC)CCCC(C)Nc1c2ccc(Cl)cc2nc2ccc(OC)cc12 (stereo not drawn) [QUINACRINE] , write its Increase in fluorescence of ADR (VAR-MEAN = MN2 - MN1).
11.83

For C=CCNc1nc(NCCC)nc(N2CCC(NCCC(c3ccccc3)c3ccccc3)CC2)n1 [Example 8] , write its Increase in fluorescence of ADR (VAR-MEAN = MN2 - MN1).
38.9
